test system: 3LL = Lewis Lung Carcinoma Cells; test: cells; settings: Mus musculus, 120 h, read-out: LC50 3LL, Table VII, concentration giving 50% cell kill, 5 days exposure
Readout: CC50 (nM)
The response must be a number in nM with no trailing unit.

Known results for compounds:
Compound | Target system | CC50 (nM)
COC(=O)c1nc(-c2ccc3c(n2)C(=O)C(N)=CC3=O)c2[nH]c3ccccc3c2c1C [Compound 55, lavendamycin methyl ester, reference compound] | 3LL = Lewis Lung Carcinoma Cells | 500
CC(=O)NC1=CC(=O)c2ccc(C=O)nc2C1=O | 3LL = Lewis Lung Carcinoma Cells | 1200

Proceed to the following item.
Asked: Item under review: CC(=O)NC1=CC(=O)c2ccc(C)nc2C1=O . Reported CC50?
Given back: 2000
